- METHOD: ATG_Oct_MLP_CIS: Attagene CIS-FACTORIAL HepG2 Assay for human Octamer-Binding Transcription Factor (Oct) (AID 2282993)
- CONDITION_NOTES: HepG2 Attagene cis-factorial Oct reporter, mRNA; actives raise or lower the signal
Activity calls are given as the source filed them. Rule for the calls: active = hit-call score of the fitted dose curve at least 0.9, where 1 is the maximum; inactive = score below 0.9.
Would you mind answering with one of these outcomes? 1 = active, 0 = inactive

Observe how each entry below is paired with its result.
>>> df
                                   molecule  group_label
0  CC(C)(c1cc(Cl)c(O)c(Cl)c1)c1cc(Cl)c(O)c(Cl)c1            0
1  CC1(C)[C@H](C(=O)O[C@H](C#N)c2cccc(Oc3ccccc3)c2)[C@@H]1C=C(Br)Br            0
2                     S=c1[nH]c2ccccc2[nH]1            0
3                       CCC(=O)c1ccc(Cl)cc1            0
4                          N#Cc1cccc(C#N)c1            0

So what was the verdict on `CC(C)(O)C#N` in this test?
0

So what was the verdict on `CC1CCCC1.[C-]#[O+].[C-]#[O+].[C-]#[O+].[Mn]` in this test?
0

So what was the verdict on c1cc(OCC2CO2)ccc1Cc1ccc(OCC2CO2)cc1 (configuration not stated) in this test?
1

So what was the verdict on `C=CCO` in this test?
0

So what was the verdict on `C[C@]12CCC(=O)C(O)=C1CC[C@@H]1[C@@H]2CC[C@]2(C)C(=O)CC[C@@H]12` in this test?
0

====

- METHOD: ACEA_AR_antagonist_AUC_viability: ACEA Biosciences xCELLigence Real-Time Cell Analysis on Androgen Receptor Antagonism for Viability (AID 2283776);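 note: 22Rv1 human prostate cancer cells growing on impedance electrode plates; area under impedance growth curve at 80 h after dosing as viability; hits lower the growth signal relative to DMSO meaning cytotoxicity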
Results filed as inconclusive are left out. The source made the active and inactive calls. How the source made its calls: active means hit-call score of the fitted dose curve at least 0.9, where 1 is the maximum; inconclusive means response in the unintended direction; inactive means score below 0.9.
PROPERTY_MEASURED: AC50

>>> print(df.to_string())
                                   compound  property_measured            result
0               CCCCCCCCCCCCCCCC[N+](C)(C)C               AC50   6.1 µM (active)
1                                  CC(C)C#N               AC50          inactive
2  Cc1cc(C)c(C2=C(OC(=O)CC(C)(C)C)C3(CCCC3)OC2=O)c(C)c1               AC50          inactive
3  CCC1CCC(=O)O1 (configuration not stated)               AC50          inactive
4                         Nc1ccc(Cl)c(Cl)c1               AC50  1.14 µM (active)

Item: `Nc1ccccc1` | AC50: inactive

Item: `O=C(NC(=O)c1c(F)cccc1F)Nc1ccc(Oc2ccc(C(F)(F)F)cc2Cl)cc1F` | AC50: inactive

====

- METHOD: ATG_TAL_CIS: Attagene CIS-FACTORIAL HepG2 Assay for human TAL Basal Promoter (AID 2282966);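 note: background control endpoint measuring basal TAL promoter reporter mRNA not a specific factor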
- CONDITION_NOTES: HepG2 Attagene cis-factorial TAL promoter reporter; actives raise or lower the signal
Active and inactive are the calls of the source. The calls were made as follows: active = hit-call score of the fitted dose curve at least 0.9, where 1 is the maximum; inactive = score below 0.9.
Would you mind answering with one of these outcomes? active, inactive

Observe how each entry below is paired with its result.
>>> print(df.to_string())
                                  molecule  group_label
0                                SCc1ccco1     inactive
1                               CN(C)CCC#N     inactive
2  Cc1ccc(N(SC(F)(Cl)Cl)S(=O)(=O)N(C)C)cc1     inactive
3                                    CCNCC     inactive
4                             C=CC(=O)OCCO     inactive

So what was the verdict on `ClCC(Cl)Cl` in this test?
inactive

So what was the verdict on `C=COCCCl` in this test?
inactive

So what was the verdict on `CCOP(O)OCC` in this test?
inactive

So what was the verdict on `C=CC(=O)OC` in this test?
inactive

So what was the verdict on CN1C(=O)CCS(=O)(=O)C1c1ccc(Cl)cc1 (stereo not drawn) in this test?
inactive

So what was the verdict on CC1CCC(=O)O1 (stereo not drawn) in this test?
inactive

So what was the verdict on `CCOC(=O)COc1ccc(Cl)cc1Cl` in this test?
inactive

So what was the verdict on CCC1CCC(=O)O1 (stereo not drawn) in this test?
inactive

So what was the verdict on `CC(C)C(=O)Cl` in this test?
inactive

====

- TARGET: human Peroxisome Proliferator-activated Receptor alpha (PPARa), PPARA (gene 5465) (UniProt Q07869)
- Sequence (Q07869 whole entry, looked up): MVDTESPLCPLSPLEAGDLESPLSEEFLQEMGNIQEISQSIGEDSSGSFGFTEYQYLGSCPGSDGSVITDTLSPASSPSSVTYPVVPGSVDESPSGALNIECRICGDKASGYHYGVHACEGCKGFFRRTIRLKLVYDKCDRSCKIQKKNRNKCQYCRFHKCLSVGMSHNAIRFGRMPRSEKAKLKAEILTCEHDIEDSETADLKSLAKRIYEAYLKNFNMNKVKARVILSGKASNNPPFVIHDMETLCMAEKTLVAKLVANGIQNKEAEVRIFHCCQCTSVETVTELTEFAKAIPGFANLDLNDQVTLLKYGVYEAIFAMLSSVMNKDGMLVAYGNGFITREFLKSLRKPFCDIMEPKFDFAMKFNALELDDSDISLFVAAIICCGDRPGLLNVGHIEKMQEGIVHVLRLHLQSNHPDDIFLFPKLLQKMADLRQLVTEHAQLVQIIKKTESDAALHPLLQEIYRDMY
- METHOD: ATG_PPARa_TRANS: Attagene TRANS-FACTORIAL HepG2 Assay for human Peroxisome Proliferator-activated Receptor alpha (PPARa) (AID 2283001)
- Description: ATG_TRANS is a cell-based, multiplexed-readout assay that uses HepG2, a human liver cell line, with measurements taken at 24 hours after chemical dosing in a 24-well plate.ATG_PPARa_TRANS is one of 30 assay component(s) measured or calculated from the ATG_TRANS assay. […] This assay endpoint, ATG_PPARa_TRANS, was analyzed in the positive analysis fitting direction relative to DMSO as the negative control and baseline of activity. […]
Results filed as inconclusive are left out. Calls of active or inactive are those of the source. How the source made its calls: active means hit-call score of the fitted dose curve at least 0.9, where 1 is the maximum; inconclusive means response in the unintended direction; inactive means score below 0.9.
Would you mind answering with one of these outcomes? Y (active), N (inactive)

Observe how each entry below is paired with its result.
>>> df
                                   molecule  group_label
0                       CC(=O)/C=C/c1ccccc1            Y
1                   O=c1[nH]c(Cl)c(Cl)cc1Cl            N
2  Oc1ccc(C2(c3ccc(O)cc3)c3ccccc3-c3ccccc32)cc1            N
3            O=C(O)CCCc1ccc(N(CCCl)CCCl)cc1            N
4  CCOC(=O)C1OC1(C)c1ccccc1 (stereo not drawn)            N
5                       CCCCCc1cc(O)cc(O)c1            N
6                          CCOP(=O)(OCC)OCC            N
7                           Oc1cc(Cl)ccc1Cl            N

So what was the verdict on `Cc1ccc(C)c2ccccc12` in this test?
N

So what was the verdict on CC(Cc1ccc(C(C)(C)C)cc1)CN1C[C@@H](C)O[C@@H](C)C1 (stereo partly drawn) in this test?
N

So what was the verdict on `O=[N+]([O-])c1cc([N+](=O)[O-])c2ccccc2c1` in this test?
N

So what was the verdict on `N#Cc1cc(I)c(O)c(I)c1` in this test?
Y

So what was the verdict on `CCCOC(=O)c1ccccc1C(=O)OCCC` in this test?
N

So what was the verdict on `Nc1ccc(-c2ccc(N)c(N)c2)cc1N` in this test?
N

So what was the verdict on `COc1cc(OC)nc(Oc2cccc(Oc3nc(OC)cc(OC)n3)c2C(=O)O)n1` in this test?
N

So what was the verdict on `C[N+](=O)[O-]` in this test?
N

So what was the verdict on `C=CC(=O)OCCO` in this test?
N

So what was the verdict on C=CC(=O)OCC(CC)CCCC (stereo not drawn) in this test?
N

So what was the verdict on `CCCC=NO` in this test?
N

So what was the verdict on `ClC1=C(Cl)[C@]2(Cl)[C@@H]3[C@@H](Cl)[C@H](Cl)C[C@@H]3[C@@]1(Cl)C2(Cl)Cl` in this test?
N

So what was the verdict on CCCCCCC1CCOC1=O (stereo not drawn) in this test?
N

So what was the verdict on `C[C@]12CC[C@H](O)C[C@H]1CC[C@@H]1[C@@H]2C[C@@H](O)[C@]2(C)[C@@H](C3=CC(=O)OC3)CC[C@]12O` in this test?
Y

So what was the verdict on `Nc1ccccc1C(=O)OCCc1ccccc1` in this test?
N

So what was the verdict on `CCOC(=O)NC(=S)Nc1ccccc1NC(=S)NC(=O)OCC` in this test?
N

So what was the verdict on `CC(C)(C)C(=O)CCl` in this test?
N

So what was the verdict on `COC(C)(C)CCC[C@H](C)C/C=C/C(C)=C/C(=O)OC(C)C` in this test?
N

So what was the verdict on `c1ccc(Nc2ccc3ccccc3c2)cc1` in this test?
N

So what was the verdict on `C[N+](C)(C)CC(=O)[O-]` in this test?
N
